Test system: Bovine cardiac myofibrils
Assay: In vitro model of dose-dependent myofibril ATPase modulation (AC1.4, pyruvate kinase/lactate dehydrogenase-coupled ATPase assay at pCa25)
Type: biochemical
Conditions: concentration at which ATPase activity was 1.4-fold higher than the bottom of the dose curve, mean of a minimum of two independent tests
Each record here notes measured AC1.4.
parameter: AC1.4 (µM)

| smiles_record | parameter | recorded_result |
| --- | --- | --- |
| CS(=O)(=O)c1cccc(C(=O)N2CCOC[C@@H]2C(=O)N[C@@H](c2cc(F)c(Cl)cc2F)C2CC2)c1 | AC1.4 | 0.8776 |
| NS(=O)(=O)c1cccc(C(=O)N2CC(F)(F)C[C@@H]2C(=O)N[C@@H](c2ccc(C(F)(F)F)cc2F)C2CC2)c1 | AC1.4 | 1.826 |
| CC1(O)CN(S(=O)(=O)N2CCC[C@H](C(=O)N3CCC[C@@H]3C(=O)NCc3ccc(C(F)(F)F)cc3F)C2)C1 | AC1.4 | 4.727 |
| C[C@@H](NC(=O)[C@H]1CCCN1C(=O)[C@H]1CCCN(S(=O)(=O)N2CC(C#N)C2)C1)c1ccc(F)cc1OC(F)F | AC1.4 | 5.5675 |
| CS(=O)(=O)C1CN(S(=O)(=O)N2CCC[C@H](C(=O)N3CCC[C@@H]3C(=O)NCc3ccc(C(F)(F)F)cn3)C2)C1 | AC1.4 | 2.344 |
| N#CC1CN(S(=O)(=O)N2CCC[C@H](C(=O)N3CCC[C@@H]3C(=O)NCc3cccc(C(F)(F)F)c3)C2)C1 | AC1.4 | 1.0398 |

====

System: Bovine cardiac myofibrils
Experiment: In vitro model of dose-dependent myofibril ATPase modulation (AC1.4, pyruvate kinase/lactate dehydrogenase-coupled ATPase assay at pCa25)
Format: biochemical
Conditions: concentration at which ATPase activity was 1.4-fold higher than the bottom of the dose curve, mean of a minimum of two independent tests
Method: In vitro Model of Dose-Dependent Myofibril ATPase Modulation: Dose responses were measured using a calcium-buffered, pyruvate kinase and lactate dehydrogenase-coupled ATPase assay containing the following reagents (concentrations expressed are final assay concentrations): Potassium PIPES (12 mM), MgCl2 (2 mM), ATP (1 mM), DTT (1 mM), BSA (0.1 mg/mi), NADH (0.5 mM), PEP (1.5 mM), pyruvate kinase (4 U/ml), lactate dehydrogenase (8 U/ml), and antifoam (90 ppm). […]
parameter: AC1.4 (µM)

| compound | recorded_result |
| --- | --- |
| O=C(N[C@@H](c1cc(F)c(C(F)(F)F)cc1F)C1COC1)[C@H]1C[C@H]2C[C@H]2N1C(=O)c1cc(C(F)(F)F)on1 | 2.768 |
| N#CC1CN(S(=O)(=O)N2CCC[C@H](C(=O)N3CCC[C@H]3C(=O)NCc3cc(F)cc(F)c3)C2)C1 | 5.48 |
| N#CC1CN(S(=O)(=O)N2CCC[C@H](C(=O)N3CCC[C@@H]3C(=O)NCCc3ccc(C(F)(F)F)cc3)C2)C1 | 8.7795 |
| CC1(O)CC([C@@H](NC(=O)[C@H]2C[C@H]3C[C@H]3N2C(=O)c2cccc(S(C)(=O)=O)c2)c2cc(F)c(C(F)(F)F)cc2F)C1 (stereo partly drawn) | 1.702 |
| CC(C)C[C@@H](NC(=O)[C@H]1CCCN1C(=O)[C@H]1CCCN(S(=O)(=O)N2CC(C#N)C2)C1)c1ccc(C(F)(F)F)cc1 | 0.0784 |
| COc1cc(C(C)NC(=O)[C@H]2CCCN2C(=O)[C@H]2CCCN(S(=O)(=O)N3CC(C#N)C3)C2)ccc1OC(F)F (stereo partly drawn) | 4.0915 |
